Values were extracted from ChEMBL document CHEMBL3244366.

Biological target: Aromatase (Homo sapiens, UniProt P11511)
Sequence (P11511 whole entry): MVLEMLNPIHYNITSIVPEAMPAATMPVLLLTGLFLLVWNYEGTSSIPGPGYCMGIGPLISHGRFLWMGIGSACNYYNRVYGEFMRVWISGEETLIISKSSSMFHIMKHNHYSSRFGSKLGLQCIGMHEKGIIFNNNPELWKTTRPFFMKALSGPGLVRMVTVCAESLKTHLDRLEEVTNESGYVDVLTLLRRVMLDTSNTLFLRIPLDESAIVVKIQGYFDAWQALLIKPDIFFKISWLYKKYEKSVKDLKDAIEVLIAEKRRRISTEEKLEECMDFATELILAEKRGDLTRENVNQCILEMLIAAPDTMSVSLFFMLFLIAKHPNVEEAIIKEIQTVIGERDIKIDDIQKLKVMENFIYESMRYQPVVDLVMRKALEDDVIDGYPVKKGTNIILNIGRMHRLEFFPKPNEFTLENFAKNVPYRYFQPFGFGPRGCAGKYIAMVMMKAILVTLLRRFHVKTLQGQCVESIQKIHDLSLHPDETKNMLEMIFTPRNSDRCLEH
Experiment: Inhibition of human placental microsomal aromatase assessed as inhibition of [C14]estrone/[C14]estradiol formation using 1.25 uM [C14]androstenedione substrate at 6.25 uM by liquid scintillation counting

- INPUT SMILES: "COc1ccc(CS[C@@H]2CC3=CC(=O)CC[C@]3(C)[C@H]3CC[C@]4(C)C(=O)CC[C@H]4[C@H]23)cc1"
  inhibition at 6.25 µM: "64%"
- INPUT SMILES: "CCCCS[C@@H]1CC2=CC(=O)CC[C@]2(C)[C@H]2CC[C@]3(C)C(=O)CC[C@H]3[C@H]12"
  inhibition at 6.25 µM: "62.4%"
- INPUT SMILES: "CCN(CC)c1ccc(CS[C@H]2CC(=O)C=C3CC[C@@H]4[C@H](CC[C@]5(C)C(=O)CC[C@@H]45)[C@]32C)cc1"
  inhibition at 6.25 µM: "32.2%"
- INPUT SMILES: "C[C@]12CCC(=O)C=C1C[C@@H](SCCc1ccccc1)[C@@H]1[C@@H]2CC[C@]2(C)C(=O)CC[C@@H]12"
  inhibition at 6.25 µM: "75.7%"
- INPUT SMILES: "COc1ccc(S[C@@H]2CC3=CC(=O)CC[C@]3(C)[C@H]3CC[C@]4(C)C(=O)CC[C@H]4[C@H]23)cc1"
  inhibition at 6.25 µM: "35.3%"
- INPUT SMILES: "CCN(CC)c1ccc(CS[C@@H]2CC3=CC(=O)CC[C@]3(C)[C@H]3CC[C@]4(C)C(=O)CC[C@H]4[C@H]23)cc1"
  inhibition at 6.25 µM: "45.1%"
- INPUT SMILES: "C[C@@]12C(=CC(=O)C[C@@H]1Sc1ccccc1)CC[C@@H]1[C@@H]2CC[C@]2(C)C(=O)CC[C@@H]12"
  inhibition at 6.25 µM: "21.2%"
- INPUT SMILES: "C[C@]12CCC(=O)C=C1C[C@@H](SCc1ccccc1)[C@@H]1[C@@H]2CC[C@]2(C)C(=O)CC[C@@H]12"
  inhibition at 6.25 µM: "66.7%"
- INPUT SMILES: "C[C@]12CCC(=O)C=C1C[C@@H](SCCCc1ccccc1)[C@@H]1[C@@H]2CC[C@]2(C)C(=O)CC[C@@H]12"
  inhibition at 6.25 µM: "68.4%"
- INPUT SMILES: "C[C@@]12C(=CC(=O)C[C@@H]1SCc1ccccc1)CC[C@@H]1[C@@H]2CC[C@]2(C)C(=O)CC[C@@H]12"
  inhibition at 6.25 µM: "20.8%"
- INPUT SMILES: "C[C@]12CCC(=O)C=C1C[C@@H](Sc1ccc(N)cc1)[C@@H]1[C@@H]2CC[C@]2(C)C(=O)CC[C@@H]12"
  inhibition at 6.25 µM: "55.6%"
- INPUT SMILES: "C[C@]12CCC(=O)C=C1C[C@@H](Sc1ccccc1)[C@@H]1[C@@H]2CC[C@]2(C)C(=O)CC[C@@H]12"
  inhibition at 6.25 µM: "45.3%"
